// provenance: ChEMBL document CHEMBL4406870

- Test system: NCI-H460
- experiment-description: cells
- cond: Homo sapiens, NCI-H460, 72 h
- Description: Cytotoxicity against human H460 cells assessed as reduction in cell viability incubated for 72 hrs by MTT assay
Class membership depends on IC50 alone; the intervals are low-valued: < 400 nM; mid-valued: ≥ 400 nM and < 2000 nM; high-valued: ≥ 2000 nM

smiles_record=COc1cc2c(Oc3ccc(NC(=O)c4nc5ccccc5n(CCc5ccccc5)c4=O)cc3F)ccnc2cc1OCCCN1CCOCC1 target_under_test=NCI-H460 discrete_label=mid-valued
smiles_record=COc1cc2c(Oc3ccc(NC(=O)c4nc5ccccc5n(C5CCCCC5)c4=O)cc3F)ccnc2cc1OCCCN1CCN(C)CC1 target_under_test=NCI-H460 discrete_label=low-valued
smiles_record=COc1cc2c(Oc3ccc(NC(=O)c4nc5ccccc5n(C5CCCC5)c4=O)cc3F)ccnc2cc1OCCCN1CCOCC1 target_under_test=NCI-H460 discrete_label=mid-valued

Form: Item = COc1ccc(CCn2c(=O)c(C(=O)Nc3ccc(Oc4ccnc5cc(OCCCN6CCCCC6)c(OC)cc45)c(F)c3)nc3ccccc32)cc1 ; Class = ?
mid-valued

Form: Item = COc1cc2c(Oc3ccc(NC(=O)c4nc5ccccc5n(Cc5ccc(F)cc5)c4=O)cc3F)ccnc2cc1OCCCN1CCN(C)CC1 ; Class = ?
high-valued

Form: Item = COc1cc2c(Oc3ccc(NC(=O)c4nc5ccccc5n(C5CCCC5)c4=O)cc3F)ccnc2cc1OCCCN1CCN(C)CC1 ; Class = ?
high-valued

Form: Item = COc1cc2c(Oc3ccc(NC(=O)c4nc5ccccc5n(C5CCCCC5)c4=O)cc3F)ccnc2cc1OCCCN1CCCCC1 ; Class = ?
low-valued

Form: Item = COc1cc2c(Oc3ccc(NC(=O)c4nc5ccccc5n(CCc5ccccc5)c4=O)cc3F)ccnc2cc1OCCCN1CCC(C)CC1 ; Class = ?
mid-valued

Form: Item = COc1cc2c(Oc3ccc(NC(=O)c4nc5ccccc5n(C5CCCC5)c4=O)cc3F)ccnc2cc1OCCCN1CCCCC1 ; Class = ?
high-valued

Form: Item = COc1cc2c(Oc3ccc(NC(=O)c4nc5ccccc5n(CCc5ccccc5)c4=O)cc3F)ccnc2cc1OCCCN1CCCCC1 ; Class = ?
high-valued

Form: Item = COc1cc2c(Oc3ccc(NC(=O)c4nc5ccccc5n(C5CCCC5)c4=O)cc3F)ccnc2cc1OCCCN1CCC(C)CC1 ; Class = ?
high-valued

Form: Item = COc1cc2c(Oc3ccc(NC(=O)c4nc5ccccc5n(CCc5ccccc5)c4=O)cc3F)ccnc2cc1OCCCN1CCN(C)CC1 ; Class = ?
mid-valued

Form: Item = COc1cc2c(Oc3ccc(NC(=O)c4nc5ccccc5n(Cc5ccc(F)cc5)c4=O)cc3F)ccnc2cc1OCCCN1CCC(C)CC1 ; Class = ?
mid-valued

Form: Item = COc1ccc(CCn2c(=O)c(C(=O)Nc3ccc(Oc4ccnc5cc(OCCCN6CCC(C)CC6)c(OC)cc45)c(F)c3)nc3ccccc32)cc1 ; Class = ?
mid-valued

Form: Item = COc1cc2c(Oc3ccc(NC(=O)c4nc5ccccc5n(C5CCCCC5)c4=O)cc3F)ccnc2cc1OCCCN1CCOCC1 ; Class = ?
low-valued
